Target: T1, PHD-SRA of UHRF1 (human)
T1 chain: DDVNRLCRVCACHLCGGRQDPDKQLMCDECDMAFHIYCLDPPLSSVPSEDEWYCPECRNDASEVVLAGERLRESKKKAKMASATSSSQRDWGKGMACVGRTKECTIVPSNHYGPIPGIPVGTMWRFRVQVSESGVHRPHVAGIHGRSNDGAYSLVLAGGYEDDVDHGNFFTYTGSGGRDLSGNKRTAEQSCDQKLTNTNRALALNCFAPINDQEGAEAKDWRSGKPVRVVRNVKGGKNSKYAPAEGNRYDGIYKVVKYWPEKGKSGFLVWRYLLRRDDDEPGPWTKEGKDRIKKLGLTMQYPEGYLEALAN
Test: ITC
test.readout: pKd
Numbers only, as −log10 of the molar value.

For record ARTKQTARKSTGGKAPR [H3 peptide (1–17)] the listed pKd is 5.24
